Assay: Pharmacokinetics in male SD rats after intravenous and oral administration
Type: in vivo
Conditions: rat, plasma, iv, 1 mg/kg, read-out: Vss
VALUE_TYPE: Vd (L/kg)

Below, each entry is followed by its recorded Vd result.
COC(=O)Nc1c(N)nc(-c2nn(Cc3ccccc3F)c3cc(F)ccc23)nc1N    0.483
Nc1nc(-c2nn(Cc3ccccc3F)c3c(F)cccc23)nc(N)c1N1CCCS1(=O)=O    6.38
COC(=O)N(C)c1c(N)nc(-c2nn(Cc3ccccc3F)c3cc(F)ccc23)nc1N    1.07
COC(=O)N(C)c1c(N)nc(-c2nn(Cc3ccccc3F)c3c(F)cc(F)cc23)nc1N    1.88

I. Nc1nc(-c2nn(Cc3ccccc3F)c3c(F)cccc23)nc(N)c1N1CCOC1=O
II. COC(=O)N(C)c1c(N)nc(-c2nn(Cc3ccccc3F)c3c(F)cccc23)nc1N
III. COC(=O)Nc1c(N)nc(-c2nn(Cc3ccccc3F)c3c(F)cccc23)nc1N
Sort (3 molecules) by Vd: min first. Sort the labels as requested; that list is your answer.
III, II, I

---

Assay: Pharmacokinetics in male SD rats after intravenous and oral administration
Type: in vivo
Settings: rat, plasma, po, 5 mg/kg
VALUE_TYPE: Tmax (h)

Below, each entry is followed by its recorded Tmax result.
COC(=O)N(C)c1c(N)nc(-c2nn(Cc3ccccc3F)c3c(F)cccc23)nc1N    1.67
COC(=O)Nc1c(N)nc(-c2nn(Cc3ccccc3F)c3c(F)cccc23)nc1N    2
Nc1nc(-c2nn(Cc3ccccc3F)c3c(F)cccc23)nc(N)c1N1CCCS1(=O)=O    1.67

a. COC(=O)Nc1c(N)nc(-c2nn(Cc3ccccc3F)c3cc(F)ccc23)nc1N
b. COC(=O)N(C)c1c(N)nc(-c2nn(Cc3ccccc3F)c3c(F)cc(F)cc23)nc1N
c. COC(=O)N(C)c1c(N)nc(-c2nn(Cc3ccccc3F)c3cc(F)ccc23)nc1N
Arrange these compounds by their Tmax, starting with the largest number. Sort the labels as requested; that list is your answer.
a, b, c

---

Test: Pharmacokinetics in male SD rats after intravenous and oral administration
Assay type: in vivo
Conditions: rat, plasma, iv, 1 mg/kg
VALUE_TYPE: clearance (mL/min/kg)

COC(=O)N(C)c1c(N)nc(-c2nn(Cc3ccccc3F)c3c(F)cc(F)cc23)nc1N [Example 2]    6.16

P. COC(=O)Nc1c(N)nc(-c2nn(Cc3ccccc3F)c3c(F)cccc23)nc1N [Example 10]
Q. COC(=O)N(C)c1c(N)nc(-c2nn(Cc3ccccc3F)c3cc(F)ccc23)nc1N [Example 6]
R. COC(=O)N(C)c1c(N)nc(-c2nn(Cc3ccccc3F)c3c(F)cccc23)nc1N [Example 11]
Sort (3 molecules) by clearance: min first. Sort the labels as requested; that list is your answer.
P, Q, R
(P: 2.21 mL/min/kg, Q: 6.18 mL/min/kg, R: 13.4 mL/min/kg)

a. COC(=O)Nc1c(N)nc(-c2nn(Cc3ccccc3F)c3cc(F)ccc23)nc1N [Example 5]
b. Nc1nc(-c2nn(Cc3ccccc3F)c3c(F)cccc23)nc(N)c1N1CCOC1=O [Example 15]
Hi team, can someone confirm which has the larger clearance: a or b ? Thanks. Return value: the label identifying the chosen record.
b

---

Test: Pharmacokinetics in male SD rats after intravenous and oral administration
Assay type: in vivo
Conditions: po 5 mg/kg versus iv 1 mg/kg
VALUE_TYPE: F (%)

Below, each entry is followed by its recorded F result.
COC(=O)Nc1c(N)nc(-c2nn(Cc3ccccc3F)c3cc(F)ccc23)nc1N    93.4
Nc1nc(-c2nn(Cc3ccccc3F)c3c(F)cccc23)nc(N)c1N1CCCS1(=O)=O    109.8
COC(=O)Nc1c(N)nc(-c2nn(Cc3ccccc3F)c3c(F)cccc23)nc1N    99.6
COC(=O)N(C)c1c(N)nc(-c2nn(Cc3ccccc3F)c3c(F)cc(F)cc23)nc1N    138.6

a. COC(=O)N(C)c1c(N)nc(-c2nn(Cc3ccccc3F)c3cc(F)ccc23)nc1N
b. Nc1nc(-c2nn(Cc3ccccc3F)c3c(F)cccc23)nc(N)c1N1CCOC1=O
Field: lower F | Options: a / b Return value: the label identifying the chosen record.
b
(b: 86%, a: 135.3%)

---

Assay: Pharmacokinetics in male SD rats after intravenous and oral administration
Assay type: in vivo
Settings: rat, plasma, iv, 1 mg/kg
VALUE_TYPE: half-life (h)

COC(=O)Nc1c(N)nc(-c2nn(Cc3ccccc3F)c3cc(F)ccc23)nc1N    4.49
Nc1nc(-c2nn(Cc3ccccc3F)c3c(F)cccc23)nc(N)c1N1CCCS1(=O)=O    0.916
COC(=O)Nc1c(N)nc(-c2nn(Cc3ccccc3F)c3c(F)cccc23)nc1N    3.54
COC(=O)N(C)c1c(N)nc(-c2nn(Cc3ccccc3F)c3c(F)cccc23)nc1N    1.37
Nc1nc(-c2nn(Cc3ccccc3F)c3c(F)cccc23)nc(N)c1N1CCOC1=O    5.56

A. COC(=O)N(C)c1c(N)nc(-c2nn(Cc3ccccc3F)c3c(F)cc(F)cc23)nc1N
B. COC(=O)N(C)c1c(N)nc(-c2nn(Cc3ccccc3F)c3cc(F)ccc23)nc1N
Hi team, can someone confirm which has the larger half-life: A or B ? Thanks. Return value: the label identifying the chosen record.
A

---

Molecular target: soluble guanylate cyclase (sGC) expressed by CHO-K1-Rat sGC monoclonal cell line (Rattus norvegicus, UniProt P19686+P20595)
Sequence (P19686 whole entry): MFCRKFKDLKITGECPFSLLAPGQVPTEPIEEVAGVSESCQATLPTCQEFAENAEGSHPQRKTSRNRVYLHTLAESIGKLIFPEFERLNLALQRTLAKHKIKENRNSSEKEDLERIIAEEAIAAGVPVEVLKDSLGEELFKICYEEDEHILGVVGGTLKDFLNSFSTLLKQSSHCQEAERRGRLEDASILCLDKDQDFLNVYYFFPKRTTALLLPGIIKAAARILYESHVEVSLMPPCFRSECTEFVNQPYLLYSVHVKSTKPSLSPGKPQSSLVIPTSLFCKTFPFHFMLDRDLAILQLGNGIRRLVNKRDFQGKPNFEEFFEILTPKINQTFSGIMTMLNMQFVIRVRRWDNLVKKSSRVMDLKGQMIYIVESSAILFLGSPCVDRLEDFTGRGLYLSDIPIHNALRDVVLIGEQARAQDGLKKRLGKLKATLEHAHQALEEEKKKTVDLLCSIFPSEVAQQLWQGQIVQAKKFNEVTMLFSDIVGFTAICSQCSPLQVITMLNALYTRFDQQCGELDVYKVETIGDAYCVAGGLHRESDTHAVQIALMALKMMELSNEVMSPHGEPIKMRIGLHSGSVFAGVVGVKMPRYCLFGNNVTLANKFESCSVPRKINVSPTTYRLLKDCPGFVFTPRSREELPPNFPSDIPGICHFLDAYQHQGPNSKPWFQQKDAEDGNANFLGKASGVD
Sequence (P20595 whole entry): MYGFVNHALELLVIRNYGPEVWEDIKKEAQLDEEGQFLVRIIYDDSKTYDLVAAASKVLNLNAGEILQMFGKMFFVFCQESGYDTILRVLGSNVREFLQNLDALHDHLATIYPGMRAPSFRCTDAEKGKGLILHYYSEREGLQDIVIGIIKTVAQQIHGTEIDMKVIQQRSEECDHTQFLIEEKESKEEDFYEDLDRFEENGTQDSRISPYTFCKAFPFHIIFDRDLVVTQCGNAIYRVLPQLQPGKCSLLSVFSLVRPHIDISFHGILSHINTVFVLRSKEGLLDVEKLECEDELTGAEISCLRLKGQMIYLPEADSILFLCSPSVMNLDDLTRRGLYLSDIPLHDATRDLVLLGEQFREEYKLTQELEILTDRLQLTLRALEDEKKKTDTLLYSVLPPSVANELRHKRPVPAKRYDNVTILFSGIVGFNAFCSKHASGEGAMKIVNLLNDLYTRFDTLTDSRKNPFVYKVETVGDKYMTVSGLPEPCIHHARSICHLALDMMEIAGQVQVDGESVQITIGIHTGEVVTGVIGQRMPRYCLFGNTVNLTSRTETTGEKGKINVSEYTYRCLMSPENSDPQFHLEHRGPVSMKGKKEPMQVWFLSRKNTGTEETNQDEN
Assay: Effect on recombinant guanylate cyclase reporter cell line (CHO-K1-Rat sGC, Cisbio cGMP HTRF)
Conditions: activating soluble guanylate cyclase
pEC50: −log10 of the molar value.
VALUE_TYPE: pEC50

Below, each entry is followed by its recorded pEC50 result.
OCCNc1nc(-c2nn(Cc3ccccc3F)c3c(F)cccc23)ncc1F    6.92
Nc1nc(-c2nn(Cc3ccccc3F)c3c(F)cccc23)nc(N)c1N1CCOCC1    7.21

P. CC(C)(O)CNc1c(N)nc(-c2nn(Cc3ccccc3F)c3c(F)cccc23)nc1N
Q. Nc1nc(-c2nn(Cc3ccccc3F)c3c(F)cccc23)ncc1C(=O)NCCO
Hi team, can someone confirm which has the larger pEC50: P or Q ? Thanks. Return value: the label identifying the chosen record.
P

---

Assay: Pharmacokinetics in male SD rats after intravenous and oral administration
Assay type: in vivo
Details: rat, plasma, iv, 1 mg/kg
VALUE_TYPE: Cmax (ng/mL)

I. COC(=O)N(C)c1c(N)nc(-c2nn(Cc3ccccc3F)c3c(F)cccc23)nc1N
II. COC(=O)Nc1c(N)nc(-c2nn(Cc3ccccc3F)c3cc(F)ccc23)nc1N
Hi team, can someone confirm which has the larger Cmax: I or II ? Thanks. Return value: the label identifying the chosen record.
II
(II: 2820 ng/mL, I: 834 ng/mL)

---

Target: soluble guanylate cyclase (sGC) expressed by CHO-K1-Rat sGC monoclonal cell line (Rattus norvegicus, UniProt P19686+P20595)
Assay: Effect on recombinant guanylate cyclase reporter cell line (CHO-K1-Rat sGC, Cisbio cGMP HTRF)
Conditions: activating soluble guanylate cyclase
VALUE_TYPE: EC50 (nM)

Below, each entry is followed by its recorded EC50 result.
Nc1nc(-c2nn(Cc3ccccc3F)c3c(F)cccc23)ncc1C(=O)N1CC(O)C1 [Example 54]    140
COC(=O)N(C)c1c(N)nc(-c2nn(Cc3ccccc3F)c3c(F)cccc23)nc1N [Example 11]    82
OCCCNc1nc(-c2nn(Cc3ccccc3F)c3c(F)cccc23)ncc1F [Example 59]    58

1. O=C(NC1CC1)c1cnc(-c2nn(Cc3ccccc3F)c3c(F)cccc23)nc1 [Example 57]
2. COC(=O)N(C)c1c(N)nc(-c2nn(Cc3ccccc3F)c3cc(F)ccc23)nc1N [Example 6]
Hi team, can someone confirm which has the larger EC50: 1 or 2 ? Thanks. Return value: the label identifying the chosen record.
2
(2: 230 nM, 1: 79 nM)

I. Nc1nc(-c2nn(Cc3ccccc3F)c3c(F)cccc23)nc(N)c1N1CCCS1(=O)=O [Example 13]
II. CC(Nc1c(N)nc(-c2nn(Cc3ccccc3F)c3c(F)cccc23)nc1N)C1CCOCC1 (centres unmarked) [Example 28]
III. Nc1nc(-c2nn(Cc3ccccc3F)c3c(F)cccc23)ncc1C(=O)N1CCOCC1 [Example 46]
Arrange these molecules by their EC50, starting with the largest number. Sort the labels as requested; that list is your answer.
III, II, I

---

Target: hERG potassium channel (Homo sapiens, UniProt Q12809)
Sequence (Q12809 whole entry): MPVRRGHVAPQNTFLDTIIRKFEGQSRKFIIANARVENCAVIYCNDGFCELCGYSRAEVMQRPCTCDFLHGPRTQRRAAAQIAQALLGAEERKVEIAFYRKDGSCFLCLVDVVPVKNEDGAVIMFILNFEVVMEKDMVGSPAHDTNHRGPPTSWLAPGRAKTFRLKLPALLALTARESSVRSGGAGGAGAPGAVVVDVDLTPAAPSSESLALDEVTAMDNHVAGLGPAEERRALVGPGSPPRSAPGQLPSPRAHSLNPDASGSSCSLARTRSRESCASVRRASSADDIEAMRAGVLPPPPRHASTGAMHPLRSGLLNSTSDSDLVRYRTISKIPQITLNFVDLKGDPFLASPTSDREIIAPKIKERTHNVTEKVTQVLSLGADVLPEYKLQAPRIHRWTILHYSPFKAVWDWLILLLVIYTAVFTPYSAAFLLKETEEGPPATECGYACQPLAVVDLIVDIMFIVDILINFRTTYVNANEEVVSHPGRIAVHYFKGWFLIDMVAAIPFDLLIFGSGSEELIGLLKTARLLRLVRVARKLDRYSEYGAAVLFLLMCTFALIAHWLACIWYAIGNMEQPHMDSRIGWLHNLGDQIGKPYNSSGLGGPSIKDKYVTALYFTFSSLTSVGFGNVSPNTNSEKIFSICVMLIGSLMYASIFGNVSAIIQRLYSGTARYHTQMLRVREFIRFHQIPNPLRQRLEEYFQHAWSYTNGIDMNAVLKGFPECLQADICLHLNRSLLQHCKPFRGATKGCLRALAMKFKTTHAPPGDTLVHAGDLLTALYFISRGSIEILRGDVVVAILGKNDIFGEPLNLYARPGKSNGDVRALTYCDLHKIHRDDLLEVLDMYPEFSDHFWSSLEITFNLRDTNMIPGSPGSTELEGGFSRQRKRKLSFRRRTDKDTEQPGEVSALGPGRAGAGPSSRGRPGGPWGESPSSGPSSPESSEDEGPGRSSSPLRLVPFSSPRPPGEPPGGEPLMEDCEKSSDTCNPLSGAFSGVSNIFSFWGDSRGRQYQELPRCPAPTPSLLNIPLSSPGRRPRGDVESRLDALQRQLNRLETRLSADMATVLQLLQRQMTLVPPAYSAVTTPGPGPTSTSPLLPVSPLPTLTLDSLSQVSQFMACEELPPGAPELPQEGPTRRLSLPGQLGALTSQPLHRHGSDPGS
Assay: Inhibition of hERG potassium channel, manual patch clamp in HEK293 cells
Settings: hERG tail current; HEK293 cells overexpressing hERG; whole cell patch clamp; 22-24° C.
VALUE_TYPE: IC50 (µM)
Respond with the bare value in µM.

May I ask what IC50 has been recorded for COC(=O)Nc1c(N)nc(-c2nn(Cc3ccccc3F)c3c(F)cccc23)nc1N ?
19.9

Value source: patent US11242335B2
